We begin with a simple list: items and their reported EC50.
Biological target: hAT1R (Homo sapiens)
Sequence (P30556 whole entry): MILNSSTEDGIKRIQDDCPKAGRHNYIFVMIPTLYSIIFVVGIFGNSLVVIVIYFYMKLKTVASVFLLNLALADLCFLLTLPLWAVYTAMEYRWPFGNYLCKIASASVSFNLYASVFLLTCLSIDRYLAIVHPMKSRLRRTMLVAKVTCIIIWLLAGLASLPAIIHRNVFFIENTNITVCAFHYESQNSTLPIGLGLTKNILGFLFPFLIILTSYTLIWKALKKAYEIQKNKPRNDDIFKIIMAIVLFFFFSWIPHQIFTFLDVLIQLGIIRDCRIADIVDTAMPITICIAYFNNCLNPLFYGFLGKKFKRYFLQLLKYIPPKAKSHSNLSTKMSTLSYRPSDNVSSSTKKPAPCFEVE
Assay: cell-based
Settings: agonist mode; read-out: BRET P63 EC50

Record excerpt, results attached:
CCc1nc2c(C)cc(C)nc2n1Cc1ccc(-c2cc(Oc3ccccn3)ccc2-c2nnn[nH]2)cc1    > 10 µM
CCOc1nc2cccc(C(=O)O)c2n1Cc1ccc(-c2cc(N3CCC[C@@H](C)C3)ccc2-c2nn[nH]n2)cc1    > 10 µM
CCOc1nc2cccc(C(=O)O)c2n1Cc1ccc(-c2cc(Oc3cccc(F)c3)ccc2-c2nn[nH]n2)cc1    > 10 µM
CCCCc1nc(Cl)c(C(=O)O)n1Cc1ccc(-c2cc(-c3ccccc3)ccc2C(=O)O)cc1    > 10 µM
CCOc1nc2cccc(C(=O)O)c2n1Cc1ccc(-c2cc(Oc3cccc(OC)c3)ccc2-c2nn[nH]n2)cc1    > 10 µM
CCc1nc2c(C)cc(C)nc2n1Cc1ccc(-c2cc(N3CCCCC3)ccc2-c2nn[nH]n2)cc1    > 100 µM

Return EC50 (reported value) for this compound: `CCCCC(=O)N(Cc1ccc(-c2cc(-c3cccc(C)n3)ccc2-c2nn[nH]n2)cc1)[C@H](C(=O)O)C(C)C`
> 100 µM

Identify measured EC50 corresponding to `CCCCC1=NC2(CCCC2)C(=O)N1Cc1ccc(-c2cc(-c3ccc(C)cc3)ccc2-c2nn[nH]n2)cc1`
> 10 µM
